Assay: Chemical stability study: vitamin contents on storage at 20 °C/ambient RH
Type: physicochemical
Conditions: Example 4 syrup, two batches
Metric name: Recovery (initial versus nominal) (%)

CC(C)(CO)[C@@H](O)C(=O)NCCC(=O)O [Pantothenic acid]    101.5
Cc1c(C)c2c(c(C)c1O)CC[C@@](C)(CCC[C@H](C)CCC[C@H](C)CCCC(C)C)O2 [D-α-tocopherol]    103.8
Cc1ncc(CO)c(CO)c1O [Pyridoxine]    99.4
O=C1O[C@H]([C@@H](O)CO)C(O)=C1O [Ascorbic acid]    93.8
Cc1ncc(C[n+]2csc(CCO)c2C)c(N)n1 [Thiamine]    96.9
Nc1nc2ncc(CNc3ccc(C(=O)N[C@@H](CCC(=O)O)C(=O)O)cc3)nc2c(=O)[nH]1 [Folic acid]    96.8
NC(=O)c1cccnc1 [Nicotinamide]    100.8
O=C(O)CCCC[C@@H]1SC[C@@H]2NC(=O)N[C@@H]21 [Biotin]    102.3
C=C1CC[C@H](O)C/C1=C/C=C1\CCC[C@]2(C)[C@@H]([C@H](C)CCCC(C)C)CC[C@@H]12 [Cholecalciferol]    92.2

* * *

Assay: Chemical stability study: vitamin contents on storage at 20 °C/ambient RH
Type: physicochemical
Conditions: Example 4 vitamin and mineral syrup, batch 2, time 0
Metric name: Initial content (mg/5 ml)

Known results for compounds:
Cc1ncc(C[n+]2csc(CCO)c2C)c(N)n1    1.25
NC(=O)c1cccnc1 [Nicotinamide]    19.2
Cc1cc2nc3c(=O)[nH]c(=O)nc-3n(C[C@H](O)[C@H](O)[C@H](O)CO)c2cc1C    1.23
Cc1ncc(CO)c(CO)c1O    0.87

(A) CC(C)(CO)[C@@H](O)C(=O)NCCC(=O)O
(B) O=C1O[C@H]([C@@H](O)CO)C(O)=C1O
Pick one: A or B . Which one has the lower reported Initial content? Give the label of your selection.
A
(A: 10.3 mg/5 ml, B: 52.0 mg/5 ml)

* * *

Experiment: Chemical stability study: vitamin contents on storage at 20 °C/ambient RH
Assay type: physicochemical
Conditions: Example 4 syrup, two batches
Metric name: Recovery (initial versus nominal) (%)

CC1=C(/C=C/C(C)=C/C=C/C(C)=C/CO)C(C)(C)CCC1    110.0
[Zn]    102.5
Cc1cc2nc3c(=O)[nH]c(=O)nc-3n(C[C@H](O)[C@H](O)[C@H](O)CO)c2cc1C    93.9
CC1=C(/C=C/C(C)=C/C=C/C(C)=C/C=C/C=C(C)/C=C/C=C(C)/C=C/C2=C(C)CCCC2(C)C)C(C)(C)CCC1    110.8

* * *

Assay: Chemical stability study: vitamin contents on storage at 20 °C/ambient RH
Format: physicochemical
Details: Example 1 syrup, production batch 1, time 0
Metric name: Initial vitamin content (mg/10 ml)

O=C1O[C@H]([C@@H](O)CO)C(O)=C1O    54.4
NC(=O)c1cccnc1 [Nicotinamide]    12.2

(A) CC(C)(CO)[C@@H](O)C(=O)NCCC(=O)O
(B) Cc1ncc(C[n+]2csc(CCO)c2C)c(N)n1
Pick one: A or B . Which one has the lower reported Initial vitamin content? Give the label of your selection.
B

* * *

Assay: Chemical stability study: vitamin contents on storage at 20 °C/ambient RH
Type: physicochemical
Details: Example 4 vitamin and mineral syrup, batch 1, time 0
Metric name: Initial content (mg/5 ml)

Known results for molecules:
Cc1ncc(CO)c(CO)c1O    0.88
CC(C)(CO)[C@@H](O)C(=O)NCCC(=O)O    10.4
O=C1O[C@H]([C@@H](O)CO)C(O)=C1O    53.0
Cc1cc2nc3c(=O)[nH]c(=O)nc-3n(C[C@H](O)[C@H](O)[C@H](O)CO)c2cc1C    1.25

(I) Cc1ncc(C[n+]2csc(CCO)c2C)c(N)n1
(II) NC(=O)c1cccnc1 [Nicotinamide]
Pick one: I or II . Which one has the lower reported Initial content? Give the label of your selection.
I
(I: 1.27 mg/5 ml, II: 19.5 mg/5 ml)
